target: Prostaglandin G/H synthase 1 (Homo sapiens, UniProt P23219)
Sequence (P23219 whole entry): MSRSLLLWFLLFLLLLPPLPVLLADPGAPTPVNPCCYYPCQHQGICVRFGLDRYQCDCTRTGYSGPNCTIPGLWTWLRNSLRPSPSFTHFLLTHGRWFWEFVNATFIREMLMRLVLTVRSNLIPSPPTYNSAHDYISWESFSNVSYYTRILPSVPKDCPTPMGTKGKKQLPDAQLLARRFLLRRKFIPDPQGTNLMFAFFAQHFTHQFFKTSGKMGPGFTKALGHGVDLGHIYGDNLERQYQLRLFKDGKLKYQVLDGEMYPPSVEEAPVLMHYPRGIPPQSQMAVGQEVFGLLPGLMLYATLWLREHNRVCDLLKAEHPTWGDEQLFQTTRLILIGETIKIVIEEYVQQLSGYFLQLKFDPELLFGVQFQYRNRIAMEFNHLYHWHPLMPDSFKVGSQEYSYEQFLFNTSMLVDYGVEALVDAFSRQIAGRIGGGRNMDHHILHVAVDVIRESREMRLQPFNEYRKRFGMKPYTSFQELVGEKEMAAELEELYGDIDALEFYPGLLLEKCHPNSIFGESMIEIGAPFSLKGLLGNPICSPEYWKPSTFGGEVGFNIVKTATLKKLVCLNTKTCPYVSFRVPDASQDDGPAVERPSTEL

{"molecule": "C/C=C/[S+]([O-])SC1SC(O)C(C)C1C (stereo unspecified)", "result_unit": "µM", "IC50": 0.052}

###

System: B16
assay_explanation: Anticancer activity against mouse B16 cells assessed as cell growth inhibition
Assay type: functional, cell-based
assay_readout: IC50 (nM)

{"molecule": "C[C@@H]1CC[C@@H](c2ccoc2)N2C[C@@]3(CC[C@@H]12)CS[C@]1(CC[C@H]2[C@H](C)CC[C@@H](c4ccoc4)N2[C@@H]1O)C3 [6-HYDROXYTHIONUPHLUTINE B]", "reported": 360}
{"molecule": "C[C@@H]1CC[C@@H](c2ccoc2)N2C[C@@]3(CC[C@@H]12)CS[C@@]1(CC[C@H]2[C@H](C)CC[C@@H](c4ccoc4)N2[C@@H]1O)C3", "reported": 29}
{"molecule": "C[C@@H]1CC[C@@H](c2ccoc2)N2[C@H]1CC[C@@]1(CS[C@@]3(CC[C@H]4[C@H](C)CC[C@@H](c5ccoc5)N4[C@@H]3O)C1)[C@H]2O", "reported": 87}

###

assay_explanation: Inhibition of Saccharomyces alpha-glucosidase using p-nitrophenyl-alpha-D-glucopyranoside as substrate assessed as substrate hydrolysis incubated for 15 mins by spectrophotometer analysis
Parameters: species or system Saccharomyces sp.
pIC50: −log10 of the molar value.

{"compound": "C/C=C/[S+]([O-])SC1SC(O)C(C)C1C (stereo unspecified)", "pIC50": 6.15}
